All values here come from the nanobody polyreactivity screen of Harvey et al. (2022).

- assay procedure: yeast display, Sf9 membrane polyspecificity reagent, FACS + sequencing; frameworks hold sequencing errors

| biosequence | polyreactivity (PSR sort gate) |
| --- | --- |
| QVQLVESGGGLFQAGGSLRLSCAASGRTLLGNAMVWYRQAPGKEREFVAAISYRGGSTYYADSVKGRFTISRDYAKNTVYLQMKSLKPEDTAVYYCAASSFKYSRFDYWGQGTQVTVSS | low polyreactivity |
| QVQLVESGGGLVQAGGSLRLSCAASGSTFGYYTMGWYREAPGKERELVAAISWSGGSTYYADSVKGRFTISRDNAKNTVYLQMNSLKPEDTAVYYCAALGYTYKYYSYYWGQGTQVTVSS | high polyreactivity |
| QVQLVESGGGLVQAGGSLRLSCAASGSTFGYYAMGWYRHAPGKERELVAAISWRGGSTYYADSVKGRYTISRDNAKNTVYLQMISLKPEDTAVYYCAAPVGNYGSFDYWGQGTQVTVSS | low polyreactivity |
| QVQLVESGGGLVQAGGSLRLSCAASGRTLGRYAMGWYRPAPGKERELVAAITRRGGITYYADSVKGRFTISRDNAKNTVYLQMNSLKPEDTAVYYCNAVNKSLQPVRDVYPLYRHDYWGQGTQVTVSS | high polyreactivity |
| QVQLVESGGGLVQAGGSLRLSCAASGLIFGYYALGWYRQAPGKDRELVAAINSGGSTYYADTVKGRFTISRDNAKNTVYLQMNSLKPEDTPVYNCAARYYSEYDYWGHGTQVTVSS | low polyreactivity |
| QVQLVESGGGLVQAGGSLSLSCAASGITFIHNAMGLYIQAPGKERELVAAITPSDGSTYYADSVKGRFTISRDNAKNTVFLQMNSLKPEDTAVYYCAARGRHSGYYSVPYYYWGQGTQVTVSS | low polyreactivity |
| QDQLVESGGGLVQAGGSLRLSCAASGSIFYRYAMGWYRQARGKVREFVAGITYSSGTTYYADSVKGRFTISRDNAKNTVYLQMNSLKPEETAVYYCAAELRSSYYRRAMDYCGQGTQVTVSS | high polyreactivity |
| QVKLVESGGGLVQAGGSLRLSCAASGSIFQGYAMGWYRQAPGKERELVAAISGRGGSTYYADSVKGRFTISRDNAKNTVYLQMNSLKPEDTAVYYCNAPRYYWISFARWPASYYYWGQGTQVTVSS | high polyreactivity |
| QVQLVDSGGGLVQAGGTLRLSCASSGSTFYYYAMGWYRQAPGKERELVAGITSGGSTNYADSVKGRFTISRDNAKNTVKLLMNSLKPEDTADYYCNARYRKYRYRYDYWGQGTQVSVSS | low polyreactivity |
| QVQLVESGGGLVQAGGSLRLSCAASGITIYIYAMGWYRQAPGKERELVAAISDVGSTHYADSVKGRFTISRDNAKNTVYLQMNSLKPEDTAVYYCNADYYWFFVFFDYDYWGQGTQVSVSS | low polyreactivity |
| QVQLVESGGGLVQAGGSLRLSCAASGSTFADYAMGWYRQAPGKERELVAAISWSGGRTYYADSVKGRFTISRDNAKNTVYLQMNSLKPEDTAVYYCAAGFGDGPGNGYYTRYSWDDDYWGQGTQVTVSS | low polyreactivity |
| QVQLVESGGGLVQAGGSLRLSCAASGITFFTYAMGWYRQAPGKEREFVATISYGGGSTYYADSVKGRFTISRDNAKNTVYLQMNSLKPEDTAVYYCNAEGYVPTYFQHYAYWGQGTQVTVSS | low polyreactivity |
| QVQLVESSGGLVQAGGSLRLSCAASGSTFALYAMGRYSQAPGKERELVAAITASGGSTYYADSVKGRLTISRDIAKKTVDLQMNSLKAEDTAVYYCATGRTKRYLYPPGYWGQGTQVTVSS | high polyreactivity |
| QVQLVESGGGLVQAGGSLRLSCAASGTIFSLYAMGWYRQAHGKERELVAAISGSGSSTHYADSVKGRFTISRDNAKNTVYLQMNSLKPEDSAVYYCAATYWTNSYYYWGQGTQVTVSS | low polyreactivity |
| QVQLVESGGGLGQAGGSLRLSCAASGRIFVGYAMGWYRQAPGKERELVAAIDVGGGSTYYADSVKGRFTISRDNAKNTVYLQMNSLKPEDTAVYYCAADAFGWSSYWPYDYWGQGTQVTVSS | low polyreactivity |
| QVQIVESGGGLVQAGGSLRLSSPASGRTLPSYAMGWYRQAPGKERELVAAITRSGGRTYYADSVKGRFTISRDNAKYTVYLQMNSLKPEDTAVYDCAARQDDYGKIYYYWGQGSQVTVSS | high polyreactivity |
| QVQLVESGGGLVQAGGSLRLSCAASGTTFNAYAMGWYRQAPGKDRELVAAISTSGGRTYYADSVKGRYTISRDNAKNTVYLQMNSLKPEDTAVNYCAAVLGRSPGLNYWGQGTQVTVSS | high polyreactivity |
| QVQLVESGGGLVQAGGSLRLTCAASGRIFRPYTMGWYRQAPGKESELVARISISTGRTYYADSVKGRFTISRDNAKNTVYLQMNSLKPEDTAVYYCATRGYRWSVFDYWGQGTQVTVSS | high polyreactivity |
| QVQLLESGGGLDQARGSLRLSCAASGRTFYGYGMGWSRQAPGKEREFVAAISYSGGSTYYADSVKGRFTISRDNAKNTVYLQMNSLKPEDTAVYYSAARNRGSCYYYWGQGTQVTVSS | high polyreactivity |
| QVQLVESGGGLVQAGGSLRLSCAASGSTFWFNDMGWYRQAPGKEREFVAAISSIGGSTYYADSVKGRFTISRDNAKNNVNLQMNSLKPEDTAVYYCAVEVVRVYRYDYWGQGTQVTVSS | low polyreactivity |
| QVQRVESGGGLVQAGGSLRLSCAASGNTFKYNTMGWYRQAPGTERELVAAISSGGNTKYADSVKGRFTISRDNGKNTDYFQMNSLKPEDTAVNYCATTFPRKGRFRYDYWGQGTQVTVSS | high polyreactivity |
